- ASSAY_NAME: Study #2 Phase 1: pharmacokinetics after single IV and single/multiple oral doses of Compound 1, absolute oral bioavailability
- CONDITIONS: human, plasma, oral, 1000 mg, AUC(0-24), Day 7, Cohort 3, 1000 mg Tablets QD × 14 Days, fed, geometric mean
OUTCOME_MEASURE: AUC(0-t) (µg·h/mL)
Give bare numbers, in µg·h/mL.

input: So what does the record say about AUC(0-t) for Nc1ncccc1-c1cc(Cc2ccc(COc3ccccn3)cc2)no1 ?
output: 316

---

- ASSAY_NAME: Study #1 Phase 1: plasma and urine pharmacokinetics of Compound 1 and Compound 1A after IV infusion of Compound 1 (SAD, MAD, loading regimen)
- CONDITIONS: both, human, plasma, 600 mg, Cmax, Cohort 10: Compound 1 600 mg/3 hr IV QD × 14 days, Day 1, geometric mean
OUTCOME_MEASURE: Cmax (ng/mL)
Answers are plain numbers, in ng/mL.

input: So what does the record say about Cmax for Nc1ncccc1-c1cc(Cc2ccc(COc3ccccn3)cc2)no1 [Compound 1A] ?
output: 7570

---

- ASSAY_NAME: Study #2 Phase 1: pharmacokinetics after single IV and single/multiple oral doses of Compound 1, absolute oral bioavailability
- CONDITIONS: human, plasma, oral, 1000 mg, Tmax, Day 1, Cohort 3, 1000 mg Tablets QD × 14 Days, fed, median
OUTCOME_MEASURE: Tmax
Write the numeric value and append its unit.

input: So what does the record say about Tmax for Nc1ncccc1-c1cc(Cc2ccc(COc3ccccn3)cc2)no1 [Compound 1A] ?
output: 4.5 h

---

- ASSAY_NAME: Study #1 Phase 1: plasma and urine pharmacokinetics of Compound 1 and Compound 1A after IV infusion of Compound 1 (SAD, MAD, loading regimen)
- CONDITIONS: both, human, plasma, 1000 mg, Cmax, Cohort 11: Compound 1 1,000 mg/2 hr IV, single dose, geometric mean
OUTCOME_MEASURE: Cmax (ng/mL)
One number for each entry, in ng/mL.

input: So what does the record say about Cmax for Nc1ncccc1-c1cc(Cc2ccc(COc3ccccn3)cc2)no1 [Compound 1A] ?
output: 15600

---

- ASSAY_NAME: Study #1 Phase 1: plasma and urine pharmacokinetics of Compound 1 and Compound 1A after IV infusion of Compound 1 (SAD, MAD, loading regimen)
- CONDITIONS: both, human, plasma, 600 mg, Cmax, Cohort 10: Compound 1 600 mg/3 hr IV QD × 14 days, Day 14, geometric mean
OUTCOME_MEASURE: Cmax (ng/mL)
Numbers only, in ng/mL.

input: So what does the record say about Cmax for Nc1ncccc1-c1cc(Cc2ccc(COc3ccccn3)cc2)no1 [Compound 1A] ?
output: 15400

---

- ASSAY_NAME: Study #2 Phase 1: pharmacokinetics after single IV and single/multiple oral doses of Compound 1, absolute oral bioavailability
- CONDITIONS: human, plasma, oral, 1000 mg, Tmax, Day 14, Cohort 3, 1000 mg Tablets QD × 14 Days, fed, median
OUTCOME_MEASURE: Tmax (h)
One number for each entry, in h.

input: So what does the record say about Tmax for Nc1ncccc1-c1cc(Cc2ccc(COc3ccccn3)cc2)no1 ?
output: 3.77

---

- ASSAY_NAME: Study #2 Phase 1: pharmacokinetics after single IV and single/multiple oral doses of Compound 1, absolute oral bioavailability;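 note: phase 1 study design: one IV dose, then escalating single oral doses, fed versus fasted single oral dosing, and once-daily oral dosing over 14 days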
- CONDITIONS: human, plasma, oral, 500 mg, Tmax, Day 14, Cohort 2, 500 mg Tablets QD × 14 Days, fed, median
OUTCOME_MEASURE: Tmax (h)
One number for each entry, in h.

input: So what does the record say about Tmax for Nc1ncccc1-c1cc(Cc2ccc(COc3ccccn3)cc2)no1 ?
output: 3.75
